# System: Staphylococcus aureus ATCC 29213
Reported MIC values for a set of compounds

Check out these entries, answers already filled in.
NCCCC[C@H](NC(=O)[C@H](CCCCN)NC(=O)[C@H](Cc1ccccc1)NC(=O)[C@H](CCCCN)NC(=O)[C@H](CCCN=C(N)N)NC(=O)[C@H](CCCN=C(N)N)NC(=O)[C@H](Cc1ccccc1)NC(=O)[C@H](CCCCN)NC(=O)[C@@H](N)CCCN=C(N)N)C(N)=O = > 50 µM
CC[C@H](C)[C@H](NC(=O)[C@H](CCCN=C(N)N)NC(=O)[C@H](CCCCN)NC(=O)[C@@H](NC(=O)[C@@H](NC(=O)[C@H](CCCN=C(N)N)NC(=O)[C@@H](N)CCCCN)[C@@H](C)CC)C(C)C)C(=O)N[C@@H](CCCCN)C(=O)N[C@@H](C)C(=O)N[C@@H](Cc1ccccc1)C(=O)N[C@@H](CC(C)C)C(=O)N[C@@H](CCCN=C(N)N)C(=O)O = 1.25 µM

Moving on to another compound below.
State measured MIC of the compound NCCCC[C@H](NC(=O)[C@H](CCCCN)NC(=O)[C@H](CCCN=C(N)N)NC(=O)[C@H](CCCN=C(N)N)NC(=O)[C@H](Cc1c[nH]c2ccccc12)NC(=O)[C@H](CCC(N)=O)NC(=O)[C@H](Cc1c[nH]c2ccccc12)NC(=O)[C@H](CCCN=C(N)N)NC(=O)[C@H](CCCN=C(N)N)NC(=O)[C@H](CCCCN)NC(=O)[C@@H](N)CCCCN)C(N)=O with Staphylococcus aureus ATCC 29213.
> 128 µM

* * *

Entries annotated with measured MIC
# System: Pseudomonas aeruginosa Ps4
# PROTOCOL NOTES: ≥ marks a high value that may be exact or a test limit, other limits are often not marked, values filed in µg/mL are converted to µM

Sample answers from the record:
CC[C@H](C)[C@H](N)C(=O)N[C@@H](Cc1c[nH]c2ccccc12)C(=O)N[C@@H](CCC(N)=O)C(=O)N[C@@H](CCCN=C(N)N)C(=O)N[C@@H](CC(N)=O)C(=O)N[C@H](C(=O)N[C@@H](CCCN=C(N)N)C(=O)N[C@H](C(=O)N[C@@H](CCCN=C(N)N)C(=O)N[C@@H](CCCN=C(N)N)C(N)=O)[C@@H](C)CC)[C@@H](C)CC = ≥ 177 µM
CC[C@H](C)[C@H](NC(=O)[C@H](CC(N)=O)NC(=O)[C@H](CCCN=C(N)N)NC(=O)[C@H](CCC(N)=O)NC(=O)[C@H](Cc1c[nH]c2ccccc12)NC(=O)[C@@H](N)CCCN=C(N)N)C(=O)N[C@@H](CCCN=C(N)N)C(=O)N[C@@H](CCCCN)C(=O)N[C@@H](Cc1ccc(O)cc1)C(=O)N[C@@H](CCCN=C(N)N)C(=O)N[C@@H](CCCN=C(N)N)C(N)=O = ≥ 153 µM
CC[C@H](C)[C@H](NC(=O)[C@H](CC(N)=O)NC(=O)[C@H](CCCN=C(N)N)NC(=O)[C@H](CCC(N)=O)NC(=O)[C@H](Cc1c[nH]c2ccccc12)NC(=O)[C@@H](NC(=O)[C@@H](N)Cc1ccccc1)[C@@H](C)CC)C(=O)N[C@@H](CCCN=C(N)N)C(=O)N[C@@H](CCCCN)C(=O)N[C@H](C(=O)N[C@@H](CCCN=C(N)N)C(N)=O)C(C)C = ≥ 165 µM
CC[C@H](C)[C@H](NC(=O)[C@H](CCCN=C(N)N)NC(=O)[C@H](Cc1c[nH]c2ccccc12)NC(=O)CNC(=O)[C@H](CCCN=C(N)N)NC(=O)[C@H](Cc1c[nH]c2ccccc12)NC(=O)[C@@H](N)Cc1ccccc1)C(=O)N[C@@H](CCCN=C(N)N)C(=O)N[C@@H](CCCN=C(N)N)C(N)=O = ≥ 93.8 µM

// next item, MIC requested
Report MIC under test system Pseudomonas aeruginosa Ps4 for CC[C@H](C)[C@H](NC(=O)[C@H](CCCN=C(N)N)NC(=O)[C@@H](NC(=O)[C@H](CCCN=C(N)N)NC(=O)[C@H](Cc1c[nH]c2ccccc12)NC(=O)[C@H](Cc1ccccc1)NC(=O)[C@@H]1CCCN1)[C@@H](C)CC)C(=O)N[C@@H](CCCN=C(N)N)C(=O)N[C@@H](CCCN=C(N)N)C(N)=O .
≥ 48.1 µM
